// provenance: the RNAGym collection of RNA variant scans (doi:10.1021/acssynbio.7b00057)

Attribute: aptazyme ON/OFF ratio
B1: Pistol ribozyme (parent)
chain: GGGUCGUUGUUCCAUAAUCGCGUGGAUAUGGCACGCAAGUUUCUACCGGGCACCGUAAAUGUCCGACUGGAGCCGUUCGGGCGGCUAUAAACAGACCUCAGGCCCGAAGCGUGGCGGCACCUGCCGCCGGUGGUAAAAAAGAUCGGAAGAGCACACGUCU

Variants of: B1
Assay: aptazyme ON/OFF ratio, guanine; higher = stronger switching; co-transcriptional cleavage with and without guanine

Look over these answered cases.
mutationList | result
U7C U8C U10C C13U | 2.08
U7C G9C U10C U11C C12G C13U | 1.05
U8C U10G U11A C12G C13A | 1.13

Moving on to the next variant.
For this variant ( U7G U8C U10G U11A ), measured aptazyme ON/OFF ratio is 1.21
